Cited source for all entries: the RNAGym collection of RNA variant scans (doi:10.7554/elife.90254)

Hi there, I'd appreciate the recorded self-cleavage for every entry that follows.
B1: LINE1-full (parent)
chain: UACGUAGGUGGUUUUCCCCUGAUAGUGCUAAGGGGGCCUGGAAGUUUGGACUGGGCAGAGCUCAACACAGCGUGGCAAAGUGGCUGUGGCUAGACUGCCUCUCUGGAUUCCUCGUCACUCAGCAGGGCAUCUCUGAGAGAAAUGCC

- Variants of: B1
- ASSAY INFO: self-cleavage, relative activity (ratio to wild type); higher = more cleavage; in vitro, sequencing; the parent is a self-cleaving ribozyme
Answers are plain numbers.

Solved entries (count: 5):
Give recorded self-cleavage. UACGUAGGUGGUUUUCCCCUGAUAGUGCUGAGGGGGCCUGGAACUUUGGACUGGGCAGAGCUCAACACAGCGUGGCAAAGUGGCUGUGGCUAGACUGCCUCUCUGGAUUCCUCGUCACUCAGCAGGGCAUCUCUGAGAGAAAUGCC
0.8

Give recorded self-cleavage. UACGUAGGUGGUUUUCCCUUGAUUGUGCUAAGGGGGCCUGGAAGUUUGGACUGGGCAGAGCUCAACACAGCGUGGCAAAGUGGCUGUGGCUAGACUGCCUCUCUGGAUUCCUCGUCACUCAGCAGGGCAUCUCUGAGAGAAAUGCC
1

Give recorded self-cleavage. UACGUAGGUGGUUUUCCCCCGAUAGUGCUAAGGGGGCCUGGAAGUUUGGACUGGGCAGAGCUCAACACAGCGUGGCAAAGUGGCUGUGGCUAGACUGCCUCUCUGGAUUCCUCGUCAUUCAGCAGGGCAUCUCUGAGAGAAAUGCC
1.2

Give recorded self-cleavage. UACGUAGGUGGUUUUCCCCUGAUAGUGCUAAGGGGGCCUGAACGUUUGGACUGGGCAGAGCUCAACACAGCGUGGCAAAGUGGCUGUGGCUAGACUGCCUCUCUGGAUUCCUCGUCACUCAGCAGGGCAUCUCUGAGAGAAAUGCC
0.25

Give recorded self-cleavage. UACGUAGGUGGUUUUCCCCUGAUAGUGCUAAGGGGGCCUGGAAGUUUGGACUGGGCAGAGCUCAACACAGCGUGGCAAAGUGGCUGUGGCUAGACUGCCUCUCUGGAUCCCUCGUCACUCAGCAGGGCAUCUCUGAGAGAAUUGCC
1.49

// each listed variant needs a value for self-cleavage
1. UACGUAGGUGGUUUUCCCCUGAUAGUGCUAAGGGGGCCUGGGAGUUUGGACUGGGCAGAGCUCAACACAGCGUGGCAAAGUGGCUGUGGCUAGACUGCCUCUCGGGAUUCCUCGUCACUCAGCAGGGCAUCUCUGAGAGAAAUGCC
2. UACGUAGGUGGUUUUCCCCUGAUAGUGCUAAGGGGGCCUGGAAGUUUGGACUGGGCAGAGCUCAACACAGCGUGGCAAAGUGGCUGUGGCUAGACUGCCUCUCUGGACUCCUCGUCACUCAGUAGGGCAUCUCUGAGAGAAAUGCC
3. UACGUAGGUGGUUUUCCCCUGAUAGUGCUAAGGGGGCCUGGAAGUUUGGACUGGGCAGAGCUCAACACAGCGUGGCGAAGUGGCUGUGGCUAGACUGCCUCUCUGGAUUCCUCGUCACUCAGCAGGACAUCUCUGAGAGAAAUGCC
4. UACGUAGGUGGUUUUCCCCUGAUAGUGCUAAGGGGGCCUGGAAGUUUGGACUAGGCAGAGCUCAACACAGCGUGGCAAAGUGGCUGUGGCUAGACUGCCUCUCUGGAUUCCUCGCCACUCAGCAGGGCAUCUCUGAGAGAAAUGCC
5. UACGUAGGUGGUUUUCCCCUGAUAGUGCUAAGGGGGCCUGGAAGUUUGGACUGGGCAGAGCUCAACACAGCGUGGCAAAGUGGCAGGGGCUAGACUGCCUCUCUGGAUUCCUCGUCACUCAGCAGGGCAUCUCUGAGAGAAAUGCC
6. UACGUAGGUGGUAUUCCCCUGAUAGUGCUAAGGGGGCCUGGAAGUUUGGACUGGGCAGAGCUCAACACAGCGUGGCAAAGCGGCUGUGGCUAGACUGCCUCUCUGGAUUCCUCGUCACUCAGCAGGGCAUCUCUGAGAGAAAUGCC
7. UACGUAGGUGGUUUUCCCCUGAUAGUGCUAAGGGGGCCUGGAAGUAUGGACUGGGCAGAGCUCAACACAGCGUGGCAAAGUGGCUGUGGCUAGACUGCCUCUCUGGAUUCCUCGUCACUCAGCAGGGCAUCUCUGAGAGAUAUGCC
8. UACGUAGGUGGUCUUCCCCUGAUAGUGCUAAGGGGGCCUGGAAGUUUGGACUGGGCAGAGCUCAACACAGCGUGGCAAAGUGGCUGUGGCUAGACUGCCUCUCUGGAUUCCUCGUCACUCAGCAGGGCAUCUCAGAGAGAAAUGCC

0.8
2.22
2.11
1.07
0.07
0.85
1.01
1.03

// each listed variant needs a value for self-cleavage
1. UACGUAGGUGGUUUUCCCCUGAUAGUGCUAAGGGGGCCUGGAUGUUUGGACUGGGCAGAGCUCAACACAGCGUGGCAAAGUGGCUGUGGCUAGACUGCCUCUUUGGAUUCCUCGUCACUCAGCAGGGCAUCUCUGAGAGAAAUGCC
2. UACGUAGGUGGUUUUCCCCUGAUAGUGCUAAGGGGGCCUGGAAGUUUGGACUGGGCAGAGCACAACACAGCGUGGCAAAGUGGCUGUGGCUAGACUGCCUCGCUGGAUUCCUCGUCACUCAGCAGGGCAUCUCUGAGAGAAAUGCC
3. UAUGUAGGUGGUUUUCCCCUGAUAGUGCUAAGGGGGCCUGGAAGUUUGGACUGGGCAGAGCUCAACGCAGCGUGGCAAAGUGGCUGUGGCUAGACUGCCUCUCUGGAUUCCUCGUCACUCAGCAGGGCAUCUCUGAGAGAAAUGCC
4. UACGUAGGUGGCUUUCCCCUGAUAGUGCUAAGGGGGCCCGGAAGUUUGGACUGGGCAGAGCUCAACACAGCGUGGCAAAGUGGCUGUGGCUAGACUGCCUCUCUGGAUUCCUCGUCACUCAGCAGGGCAUCUCUGAGAGAAAUGCC
5. UACGUAGGUGGUUUUCCCCUGAUAGUGCUAAGGGGGCCUGGAAGUUUGGAUUGGGCAGAGCUCAACACAGCGUGGCAAAGUGGCUGUGGCAAGACUGCCUCUCUGGAUUCCUCGUCACUCAGCAGGGCAUCUCUGAGAGAAAUGCC
6. UACGUAGGUGGUUUUCCCCAGAUAGUGCUAAGGGGGCCUGGAAGUUUGGACUGGGCAGAGCUCAAUACAGCGUGGCAAAGUGGCUGUGGCUAGACUGCCUCUCUGGAUUCCUCGUCACUCAGCAGGGCAUCUCUGAGAGAAAUGCC
7. UACGUAGGUGGGUUUCCCCUGAUAGUGCUAAGGGGGCCUGGAAGUUUGGACUGGGCAGAGCUCAACACAGCGUGGCAAAGUGGCUGUGGCUAGACUGUCUCUCUGGAUUCCUCGUCACUCAGCAGGGCAUCUCUGAGAGAAAUGCC
8. UACGUAGGUGGUUUUCCCCUGAUAGUGCUAAGGGGGCCUGGAAGUCUGGACUGGGCAGAGCUCAACACAGCGUGGCAAAGUGGCUGUGGCUAGACUGCCUCUCUGGAUUCCUCGUCCCUCAGCAGGGCAUCUCUGAGAGAAAUGCC

1.09
0.08
0
1.4
0.84
0.02
0.41
2.44

// each listed variant needs a value for self-cleavage
1. UACGUAGGUGGUUUUCCCCUGAUAGUGCUAAGGGGGCCUGGAAGUCUGGACUGGGCAGAGCUCAACACAGCGGGGCAAAGUGGCUGUGGCUAGACUGCCUCUCUGGAUUCCUCGUCACUCAGCAGGGCAUCUCUGAGAGAAAUGCC
2. UACGUAGGUGGUAUUCCCCUGAUAGUGCUAAGGGGGCCUGGAAGUAUGGACUGGGCAGAGCUCAACACAGCGUGGCAAAGUGGCUGUGGCUAGACUGCCUCUCUGGAUUCCUCGUCACUCAGCAGGGCAUCUCUGAGAGAAAUGCC

1: 1.65; 2: 1.21
